- experiment: Plasma pharmacokinetic study in rats after oral and intravenous administration of SZ–A or purified DNJ
- Assay type: in vivo, rat
- condition_description: Sprague-Dawley, iv; rat plasma, SZ–A 4 mg/kg i.v., n = 5
- Description: The oral dosing solutions used for all animal studies were prepared by dissolving in water. Thirty rats weighed 250–270 g after acclimation were randomly divided into six groups of five animals each. For oral administration, rats were treated with SZ–A (40, 200, 1000 mg/kg) or purified DNJ (15 mg/kg) dissolve in water. […] F was calculated according to the formula: F (%) = (AUC oral/AUC i.v.) × (dose i.v./dose oral) × 100. […]
Property: AUC(0-inf); scope: individual compounds
Give the number; ng·h/mL is assumed, so skip it.

# count of solved cases: 2
{"columns": ["compound", "AUC(0-inf) [ng·h/mL]"],
 "data": [
  ["OC[C@H]1NCC[C@@H](O)[C@@H]1O [FGM, fagomine]", 284],
  ["OC[C@H]1NC[C@H](O)[C@@H](O)[C@@H]1O [DNJ, 1-deoxynojirimycin]", 1400]
]}

# evaluate next
Which AUC(0-inf) value is on record for OC[C@H]1NC[C@@H](O)[C@@H]1O [DAB, 1,4-dideoxy-1,4-imino-D-arabinitol] ? 129
